measurement_protocol: qHTS assay to identify small molecule antagonists of the androgen receptor (AR) signaling pathway using the MDA cell line - cell viability counter screen (AID 743041; note: nearly all actives have a fitted effect of over 45% in size)
measurement_context: MDA-kb2 viability, CellTiter-Fluor, 16 h, cells co-treated with R1881 androgen agonist; series mostly up to 70.3 µM
Inconclusive results are not listed. Calls of active or inactive are those of the source. Calls come from the whole dose curve; as a rule, active = well fitted cell-killing curve with a large enough effect in the repeat runs; inconclusive = weak or mixed curves, or effect the other way; inactive = flat fitted curve, though single readings scatter.
Possible outcomes: Y (active), N (inactive)

compound: CN(C)CCOC(c1ccccc1)c1ccccc1 (tested in a mixture with another compound)
category: N
--
compound: O=C(O)CC(=O)O
category: N
--
compound: O=C1c2c(O)ccc([N+](=O)[O-])c2C(=O)c2c([N+](=O)[O-])ccc(O)c21
category: Y
--
compound: N[C@@H](CSSC[C@H](N)C(=O)O)C(=O)O
category: N

----------
measurement_protocol: qHTS RealTime-Glo MT Cell Viability Assay in HepG2 cells - 24 hour (AID 1224867); note: nearly all actives have a fitted effect of over 50% in size
measurement_context: RealTime-Glo luminescence; series mostly up to 76.8 µM
Inconclusive results are not listed. Activity calls are given as the source filed them. The call rests on the fitted dose curve; in most records, active means well fitted cell-killing curve with a large enough effect in the repeat runs; inconclusive means weak or mixed curves; inactive means flat fitted curve, though single readings scatter.
Possible outcomes: YES = active, NO = inactive

compound: CCCCCCCCCCOCC(O)CN (stereo unspecified)
category: YES
--
compound: CCOC(OCC)C(=O)c1ccccc1
category: NO
--
compound: Cc1cc(=O)[nH]c(=O)[nH]1
category: NO
--
compound: CCC(C)C(=O)OC (stereo unspecified)
category: NO
--
compound: OCCCS
category: NO
--
compound: Oc1c(Br)cc(Br)c2cccnc12
category: NO
--
compound: CCCCCCCCCCCCCc1ccccc1
category: NO
--
compound: CCN(CC)CCNc1ccc(CO)c2sc3ccccc3c(=O)c12
category: YES
--
compound: CC(C)(C)C1=CC(=O)C=C(C(C)(C)C)C1=O
category: NO
--
compound: CC(=O)C=O
category: NO
--
compound: COc1nccnc1CC(C)C
category: NO
--
compound: CN1[C@@H]2CC[C@H]1CC(OC(=O)C(CO)c1ccccc1)C2 (stereo partly specified)
category: NO
--
compound: CC(C)(c1cc(Br)c(O)c(Br)c1)c1cc(Br)c(O)c(Br)c1
category: NO
--
compound: CCCCCCCCCCc1ccccc1
category: NO
--
compound: CO[C@H]1C=CO[C@@]2(C)Oc3c(C)c(O)c4c(O)c(cc(O)c4c3C2=O)NC(=O)/C(C)=C\C=C/[C@H](C)[C@H](O)[C@@H](C)[C@@H](O)[C@@H](C)[C@H](OC(C)=O)[C@@H]1C
category: NO
--
compound: CCCCCCCC/C=C/CCCOC(C)=O
category: NO

----------
measurement_protocol: qHTS assay for identifying genotoxic compounds that show differential cytotoxicity against isogenic chicken DT40 cell lines with known DNA damage response pathways - Rad54/Ku70 mutant cell line (AID 743015); note: nearly all actives have a fitted effect of over 60% in size
measurement_context: DT40 Rad54/Ku70 mutant viability, CellTiter-Glo, 40 h; series mostly up to 66.8 µM
Inconclusive results are not listed. Activity calls are given as the source filed them. Calls follow the shape of the dose curve; as a rule, active = well fitted cell-killing curve with a large enough effect in the repeat runs; inconclusive = weak or mixed curves; inactive = no such curve, though single readings can be large or run the other way.
Outcome codes: 1.0 = active, 0.0 = inactive

molecule: CCCCCCCCCCOCC(O)CN (stereo unspecified)
category: 1.0
--
molecule: O=C1C=CC(=O)N1c1ccccc1
category: 1.0
--
molecule: CN1CCN(C2Cc3ccccc3Sc3ccc(Cl)cc32)CC1 (stereo unspecified)
category: 1.0
--
molecule: CCCOc1sc(C(=O)N2CCC(c3cc(CN)ccc3F)CC2)c(C)c1Br
category: 1.0
--
molecule: CC(C)(c1cc(Br)c(O)c(Br)c1)c1cc(Br)c(O)c(Br)c1
category: 1.0
--
molecule: CC(COC(=O)c1ccccc1)OC(=O)c1ccccc1 (stereo unspecified)
category: 1.0
--
molecule: CCOC(=O)[C@@](C)(N)Cc1ccc(O)c(O)c1
category: 0.0
--
molecule: CC(C)c1ccc(O)c(C(C)C)c1
category: 1.0
--
molecule: O=S(=O)(O)CCCN1CCOCC1
category: 0.0
--
molecule: C[C@@]12C(=O)OC(=O)[C@]1(C)C1CCC2O1
category: 0.0
--
molecule: CCCCCCC(C)Nc1ccc(Nc2ccccc2)cc1 (stereo unspecified)
category: 1.0
--
molecule: CCCCCCCC/C=C\CCCCCCCC(=O)OCCOC(=O)CCCCCCC/C=C\CCCCCCCC
category: 0.0
--
molecule: CCCCCCCCCCCCCCNCCO
category: 1.0
--
molecule: COc1ccccc1OCCNCC(O)COc1cccc2[nH]c3ccccc3c12 (stereo unspecified)
category: 1.0
--
molecule: CCCCOc1ccc(C(=O)CCN2CCCCC2)cc1
category: 1.0
--
molecule: CCCCCCCCCCCCN(CCO)CCO
category: 1.0
--
molecule: SCCCCCCCCS
category: 1.0
--
molecule: O=C1c2c(O)ccc([N+](=O)[O-])c2C(=O)c2c([N+](=O)[O-])ccc(O)c21
category: 1.0
--
molecule: COc1ccc2sc(C(=O)Nc3nnn[nH]3)c(OC(C)C)c2c1
category: 1.0
--
molecule: NC(=O)c1ccccc1N
category: 0.0
--
molecule: CCC(C)c1cc([N+](=O)[O-])cc([N+](=O)[O-])c1OC(=O)OC(C)C (stereo unspecified)
category: 1.0
--
molecule: CC1=C(/C=C/C(C)=C/C=C/C(C)=C\C=O)C(C)(C)CCC1
category: 1.0
--
molecule: CCCCN(CCCC)CCC(O)c1cc2c(Cl)cc(Cl)cc2c2cc(C(F)(F)F)ccc12 (stereo unspecified)
category: 1.0
--
molecule: Cc1cc2c(C(C)C)c(O)c(O)c(C=O)c2c(O)c1-c1c(C)cc2c(C(C)C)c(O)c(O)c(C=O)c2c1O
category: 1.0
--
molecule: CN(Cc1cc(Br)cc(Br)c1N)C1CCCCC1
category: 1.0
--
molecule: CCN(CC)CCCN(c1ccccc1)C1Cc2ccccc2C1
category: 1.0
--
molecule: CCCC(CC)CCCCCCCN (stereo unspecified)
category: 0.0
--
molecule: C=C(C)C(=O)OCCC[Si](Cl)(Cl)Cl
category: 0.0
--
molecule: Oc1ccc(-c2ccccc2)c(Cl)c1
category: 1.0
--
molecule: N#CSCSc1nc2ccccc2s1
category: 1.0
--
molecule: CC(C)OC(=O)c1cc(C(=O)OC(C)C)cc([N+](=O)[O-])c1
category: 1.0
--
molecule: CCO[Si](CCCSSSSCCC[Si](OCC)(OCC)OCC)(OCC)OCC
category: 1.0
--
molecule: O=Nc1ccc(NO)cc1
category: 0.0
--
molecule: C[C@]12CC[C@H]3C(=CCc4cc(O)ccc43)[C@@H]1CCC2=O
category: 1.0
--
molecule: CCN(CC)CCOc1ccc(C(O)(Cc2ccc(Cl)cc2)c2ccc(C)cc2)cc1 (stereo unspecified)
category: 1.0
--
molecule: COc1cccc(CCc2ccccc2OCC(CN(C)C)OC(=O)CCC(=O)O)c1 (stereo unspecified)
category: 1.0
--
molecule: CC(NCCC(c1ccccc1)c1ccccc1)c1ccccc1 (stereo unspecified)
category: 1.0
--
molecule: CCCCC(CC)COC(=O)c1ccc(O)cc1 (stereo unspecified)
category: 1.0
--
molecule: CCC(=O)OCCc1ccccc1
category: 1.0
--
molecule: CC(=O)OC(OC(C)=O)c1ccc([N+](=O)[O-])o1
category: 1.0
--
molecule: CC(C)N=C(N)/N=C(\N)Nc1ccc(Cl)cc1
category: 1.0
--
molecule: ClC/C=C\CCl
category: 0.0
--
molecule: O=C(O)CCCCCCC(=O)O
category: 0.0
--
molecule: CN(C)c1ccc(N=NS(=O)(=O)O)cc1
category: 1.0
--
molecule: Nc1ncnc2c1ncn2[C@@H]1O[C@H](COP(=O)(O)O)[C@@H](O)[C@H]1O
category: 0.0
--
molecule: O=C1OC(OC(=O)c2cccnc2Nc2cccc(C(F)(F)F)c2)c2ccccc21 (stereo unspecified)
category: 0.0
